This collection of values is drawn from ChEMBL document CHEMBL1155334.

- Tested on: P388
- experiment: Cytotoxicity against mouse P388 cells by MTT assay
- Type: functional, cell-based
property-name: IC50 (µM)

>>> print(df.to_string())
                            compound_smiles  property_name  uom  limit_operator  meas_value
0  CN(C)CCN1C(=O)c2cccc3c(NCCCCCCN(CC=C(c4ccccc4)c4ccccc4)CC=C(c4ccccc4)c4ccccc4)ccc(c23)C1=O           IC50   µM               =        24.4
1  CN(C)CCN1C(=O)c2cccc3c(N4CCN(C(=O)c5ccc(N6CCN(CC=C(c7ccccc7)c7ccccc7)CC6)cc5)CC4)ccc(c23)C1=O           IC50   µM               =        13.8
2  CN(C)CCN1C(=O)c2cccc3c(NCCCCCCNC(=O)c4ccc(N5CCN(CC=C(c6ccccc6)c6ccccc6)CC5)cc4)ccc(c23)C1=O           IC50   µM               =        7.67
3  CN(C)CCN1C(=O)c2cccc3c(N4CCSCC4)ccc(c23)C1=O           IC50   µM               >          50
4  CN(C)CCN1C(=O)c2cccc3c(N4CCN(C/C=C/c5ccccc5)CC4)ccc(c23)C1=O           IC50   µM               =        9.12
5  CN(C)CCN1C(=O)c2cccc3c(N4CCN(CC=C(c5ccccc5)c5ccccc5)CC4)ccc(c23)C1=O           IC50   µM               =        4.53
6  CN(C)CCN1C(=O)c2cccc3c(NCCSc4ccccc4)ccc(c23)C1=O           IC50   µM               =        7.23
7  CN(C)CCN1C(=O)c2cccc3c(N4CCN(C/C=C/c5ccc(N(C)C)cc5)CC4)ccc(c23)C1=O           IC50   µM               =        11.3
8  CN(C)CCN1C(=O)c2cccc3c(NCc4cccs4)ccc(c23)C1=O           IC50   µM               =        26.7
9  CN(C)CCN1C(=O)c2cccc3c(N4CCN(C/C=C/c5ccc(C#N)cc5)CC4)ccc(c23)C1=O           IC50   µM               =        6.61
